- System: ACHN renal
- Assay notes: NCI tumour cell line growth inhibition, 48 h; in the data active means GI50 below about 0.43 µM; inactive means the rest
Output constraint: value belongs to Yes = active, No = inactive

Use these answered entries as a reference point.
- Molecule: "COc1cc2c(Oc3ccc4[nH]c(C)cc4c3F)ncnc2cc1OCCCN1CCCC1"
  Assigned class: "No"
- Molecule: "CN(c1ccc(Cl)c(Cl)c1)c1cnc2cc(N)cc(N)c2n1"
  Assigned class: "No"
- Molecule: "Cn1cc(-c2csc(-c3c[nH]c4ccc(F)cc34)n2)c2cccnc21"
  Assigned class: "No"
- Molecule: "CSc1ccc(C2=NN(c3ccccc3)C(c3ccc(-c4cc(Cl)c(Cl)cc4Cl)o3)C2)cc1 (stereo not given)"
  Assigned class: "No"
- Molecule: "C=C1C(O)C2C(=C(CC(C)C)C13CC3)C(=O)C(C)(C)C2O (stereo not given)"
  Assigned class: "No"

Kindly consider the entry below.
Ask: Hi, sorry to bother you, what did the test record for "CN(C)CCCNc1nc2ccccc2c2c(=O)c3cc(F)ccc3sc12" ?
Result: No
